meta.source: PubChem BioAssay (NCI)

Tested on: SN12C renal
Test: NCI tumour cell line growth inhibition, 48 h
ATTRIBUTE_MEASURED: GI50

Before answering, review these 5 worked examples.
Query :: Please report the recorded GI50 for CCOC(=O)Cn1c(-c2nonc2NC(=O)c2ccccc2F)nc2ccccc21 .
Result :: 26.2 µM

Query :: Please report the recorded GI50 for Cc1ccc(-c2cc(-c3ccc(C)cc3)nc(N3CCN(CCNc4ccnc5cc(Cl)ccc45)CC3)n2)cc1 .
Result :: 4.71 µM

Query :: Please report the recorded GI50 for CCCCCCCCCCC[C@@H](C[C@H]1OC(=O)[C@H]1CCCCCC)OC(=O)[C@@H](CC(C)C)NC=O .
Result :: 2.42 µM

Query :: Please report the recorded GI50 for O=C(c1nn(-c2ccc(Cl)cc2)cc1O)n1nc(C(F)(F)F)cc1-c1ccccc1 .
Result :: 3.57 µM

Query :: Please report the recorded GI50 for Fc1cccc(Cl)c1Cn1c(-c2c(F)cccc2Cl)nc2ccccc21 .
Result :: 15.7 µM

---
Query :: Please report the recorded GI50 for CCSc1ccc([C@@H]2[C@@H](N)C(=O)N2c2cc(OC)c(OC)c(OC)c2)cc1 .
Result :: 0.524 µM

Query :: Please report the recorded GI50 for Nc1nc(-c2ccc(Cl)cc2)cc(-c2ccc(Cl)cc2)c1-c1nc2ccccc2o1 .
Result :: 12.4 µM

Query :: Please report the recorded GI50 for O=C(Cn1c(C(=O)c2ccc(Cl)cc2)nc(-c2ccccc2)c1-c1ccccc1)c1ccc(Cl)cc1 .
Result :: > 100 µM

Query :: Please report the recorded GI50 for O=C(Oc1ccccc1Cl)c1ccccc1Nc1cccc(C(F)(F)F)c1 .
Result :: 23.4 µM

Query :: Please report the recorded GI50 for CCCCCCCCNC(C)C(O)c1ccc(SC(C)C)cc1 (stereo not given) .
Result :: 1.57 µM
